VAR-MEAN (increase in ADR fluorescence), line DC-3F/AD listing for selected molecules.
Test system: line DC-3F/AD
ASSAY_COMMENT: Flow cytometry: intracellular accumulation of adriamycin by cells of the line DC-3F/AD
Format: cell-based, Chinese hamster
EXPERIMENTAL_SETUP: 5.0 μM compound; ADR 50 μM; 5 hours

[
  {
    "MOLECULE": "CNc1nc(NC)nc(N2CCC(NCC3c4ccccc4CCc4ccccc43)CC2)n1 [Example 14]",
    "READOUT_VALUE": 29.4
  },
  {
    "MOLECULE": "C=CCNc1nc(NCC=C)nc(NCCN2CCN(C3c4ccccc4CCc4ccccc43)CC2)n1 [Example 2]",
    "READOUT_VALUE": 10.2
  }
]

Reported VAR-MEAN (increase in ADR fluorescence), line DC-3F/AD for line DC-3F/AD, given C=CCNc1nc(NC)nc(N2CCC(NCC3c4ccccc4COc4ccccc43)CC2)n1 (racemic) [Example 28] ? 16.8

Same thing, different molecule: C=CCNc1nc(NCC=C)nc(NCC2CCN(C3c4ccccc4CCc4ccccc43)CC2)n1 [Example 7] 10.1

Same thing, different molecule: C=CCNc1nc(NCC=C)nc(N2CCC(N(C)CC3c4ccccc4CCc4ccccc43)CC2)n1 [Example 30] 17.8

Same thing, different molecule: C=CCNc1nc(NCC=C)nc(N2CCC(NCC3c4ccccc4CSc4ccccc43)CC2)n1 (racemic) [Example 26] 33.5

Same thing, different molecule: C=CCNc1nc(NCC=C)nc(N2CCN(CC3c4ccccc4CCc4ccccc43)CC2)n1 [Example 25] 17.6

Same thing, different molecule: C=CCNc1nc(NCC=C)nc(N2CCC(NCC3c4ccccc4CCCc4ccccc43)CC2)n1 [Example 20] 22.3

---

Reversion factors (cytotoxicity) with the line DC-3F/AD listing for selected molecules.
Tested on: line DC-3F/AD
ASSAY_COMMENT: Cytotoxicity (Microculture Tetrazolium Assay): reversal of resistance to actinomycin D, line DC-3F/AD
Type: cell-based, Chinese hamster
EXPERIMENTAL_SETUP: 5 μM compound, 4 days
Reply briefly: the number, and no unit.

Please review the entries below; each comes with its answer.
[
  {
    "MOLECULE": "C=CCNc1nc(NCC=C)nc(N2CCC(NCC3c4ccccc4CSc4ccccc43)CC2)n1 (racemic)",
    "READOUT_VALUE": 866.6
  },
  {
    "MOLECULE": "C=CCNc1nc(NCC)nc(N2CCC(NCC3c4ccccc4CCc4ccccc43)CC2)n1",
    "READOUT_VALUE": 2499
  },
  {
    "MOLECULE": "C=CCNc1nc(NCC=C)nc(N2CCC(NCC3c4ccccc4CS(=O)(=O)c4ccccc43)CC2)n1 (racemic)",
    "READOUT_VALUE": 27.4
  }
]

Reported Reversion factors (cytotoxicity) with the line DC-3F/AD for line DC-3F/AD, given C=CCNc1nc(NCC)nc(N2CCC(NCC3c4ccccc4COc4ccccc43)CC2)n1 (racemic) ? 1327.5

Same thing, different molecule: C=CCNc1nc(NCC=C)nc(N2CCC(NCC3c4ccccc4CCc4cc(OC)ccc43)CC2)n1 (racemic) 1913.4

Same thing, different molecule: C=CCNc1nc(NCC=C)nc(N2CCC(NCC3c4ccccc4CCc4ccccc43)CC2)n1 3187

Same thing, different molecule: C=CCNc1nc(N)nc(N2CCC(NCC3c4ccccc4CCc4ccccc43)CC2)n1 421

Same thing, different molecule: C=CCNc1nc(NCC=C)nc(N2CCC(NCC3c4ccccc4C=Cc4ccccc43)CC2)n1 1408

---

Reversion factors (cytotoxicity) with the line DC-3F/AD listing for selected compounds.
System: line DC-3F/AD
ASSAY_COMMENT: Cytotoxicity (Microculture Tetrazolium Assay): reversal of resistance to actinomycin D, line DC-3F/AD
Assay type: cell-based, Chinese hamster
EXPERIMENTAL_SETUP: 1 μM compound, 4 days
Reply briefly: the number, and no unit.

[
  {
    "COMPOUND": "C=CCNc1nc(N)nc(N2CCC(NCC3c4ccccc4CCc4ccccc43)CC2)n1",
    "READOUT_VALUE": 3
  }
]

Field: next compound
I am curious: what Reversion factors (cytotoxicity) with the line DC-3F/AD value has been reported for C=CCNc1nc(NCC=C)nc(NCC(O)CN2CCC(NCC3c4ccccc4CCc4ccccc43)CC2)n1 (stereo not drawn) ? 0.8

---

Test system: resistant line P/388/VCR
ASSAY_COMMENT: Antitumour activity in vivo: increase in antitumour activity of vincristine on murine leukaemia P 388/VCR
Parameters: species or system murine; female B6D2Fl mice
EXPERIMENTAL_SETUP: 50 mg/kg i.p. daily for 4 days, with vincristine […] i.p.; ± sem; no compound: 146 ± 2
MEASURED_QUANTITY: T/C % (%)
Numbers only here, please. The scale is %.

Please review the entries below; each comes with its answer.
[
  {
    "MOLECULE": "C=CCNc1nc(NCC=C)nc(N2CCC(NCC3c4ccccc4C=Cc4ccccc43)CC2)n1",
    "UNIT_ABBREV": "%",
    "READOUT_VALUE": 156
  },
  {
    "MOLECULE": "C=CCNc1nc(NCC)nc(N2CCC(NCC3c4ccccc4CCc4ccccc43)CC2)n1",
    "UNIT_ABBREV": "%",
    "READOUT_VALUE": 159
  },
  {
    "MOLECULE": "C=CCNc1nc(NCC=C)nc(N2CCC(NCC3c4ccccc4N(C)S(=O)(=O)c4cc(Cl)ccc43)CC2)n1 (racemic)",
    "UNIT_ABBREV": "%",
    "READOUT_VALUE": 154
  },
  {
    "MOLECULE": "C=CCNc1nc(NCC=C)nc(N2CCC(NCC3c4ccccc4COc4ccccc43)CC2)n1 (racemic)",
    "UNIT_ABBREV": "%",
    "READOUT_VALUE": 167
  },
  {
    "MOLECULE": "C=CCNc1nc(NCC)nc(N2CCC(NCC3c4ccccc4COc4ccccc43)CC2)n1 (racemic)",
    "UNIT_ABBREV": "%",
    "READOUT_VALUE": 171
  }
]

Reported T/C % for resistant line P/388/VCR, given COc1ccc(CCN(C)CCCC(C#N)(c2ccc(OC)c(OC)c2)C(C)C)cc1OC (stereo not shown) [verapamil, reference compound] ? 164

Same thing, different molecule: C=CCNc1nc(NCC=C)nc(N2CCC(NCC3c4ccccc4CCCc4ccccc43)CC2)n1 161

---

Tested on: line DC-3F/AD
ASSAY_COMMENT: Flow cytometry: intracellular accumulation of adriamycin by cells of the line DC-3F/AD
Assay type: cell-based, Chinese hamster
EXPERIMENTAL_SETUP: 10 μM compound; ADR 50 μM; 5 hours
MEASURED_QUANTITY: VAR-MEAN (increase in ADR fluorescence), line DC-3F/AD
Reply briefly: the number, and no unit.

[
  {
    "COMPOUND": "C=CCNc1nc(NCC=C)nc(N2CCC(NCC3c4ccccc4CSc4ccccc43)CC2)n1 (racemic) [Example 26]",
    "STUDY_SYSTEM": "line DC-3F/AD",
    "READOUT_VALUE": 32.6
  },
  {
    "COMPOUND": "C=CCNc1nc(NCC=C)nc(N2CCN(CC3c4ccccc4CCc4ccccc43)CC2)n1 [Example 25]",
    "STUDY_SYSTEM": "line DC-3F/AD",
    "READOUT_VALUE": 24.5
  },
  {
    "COMPOUND": "C=CCNc1nc(NCC)nc(N2CCC(NCC3c4ccccc4COc4ccccc43)CC2)n1 (racemic) [Example 29]",
    "STUDY_SYSTEM": "line DC-3F/AD",
    "READOUT_VALUE": 21.8
  }
]

Field: next compound
I am curious: what VAR-MEAN (increase in ADR fluorescence), line DC-3F/AD value has been reported for C=CCNc1nc(NCC=C)nc(N2CCN(C3c4ccccc4CCc4ccccc43)CC2)n1 [Example 1] ? 19.3

---

Test system: line DC-3F/AD
ASSAY_COMMENT: Cytotoxicity (Microculture Tetrazolium Assay): reversal of resistance to actinomycin D, line DC-3F/AD
Assay type: cell-based, Chinese hamster
EXPERIMENTAL_SETUP: 5 μM compound, 4 days
MEASURED_QUANTITY: Reversion factors (cytotoxicity) with the line DC-3F/AD
Reply briefly: the number, and no unit.

Please review the entries below; each comes with its answer.
[
  {
    "COMPOUND": "C=CCNc1nc(NCC=C)nc(N2CCN(NCC3c4ccccc4CCc4ccccc43)CC2)n1",
    "READOUT_VALUE": 329
  },
  {
    "COMPOUND": "C=CCNc1nc(NCC=C)nc(NCCN2CCC(NC3c4ccccc4CCc4ccccc43)CC2)n1",
    "READOUT_VALUE": 64
  },
  {
    "COMPOUND": "C=CCNc1nc(NCC=C)nc(N2CCC(NCC3c4ccccc4-c4ccccc43)CC2)n1",
    "READOUT_VALUE": 170
  },
  {
    "COMPOUND": "C=CCNc1nc(NCC=C)nc(NCC(O)CN2CCC(NCC3c4ccccc4CCc4ccccc43)CC2)n1 (stereo not drawn)",
    "READOUT_VALUE": 1.1
  },
  {
    "COMPOUND": "C=CCNc1nc(NCC=C)nc(N2CCC(NCC3c4ccccc4CCCc4ccccc43)CC2)n1",
    "READOUT_VALUE": 2951
  }
]

Field: next compound
I am curious: what Reversion factors (cytotoxicity) with the line DC-3F/AD value has been reported for C=CCNc1nc(NCC=C)nc(N2CCC(N(C)CC3c4ccccc4CCc4ccccc43)CC2)n1 ? 834.0

Cited source for all entries: patent US5238936A
